The measured values listed here are drawn from patent US20220323406A1.

Tested on: ENR+CD organoids
Test: Primary screen: ATP (CellTiter-Glo 3D, CTG) cell number/viability, 2.5-D 384-well ENR+CD organoids
Conditions: primary screen, dose 2.00 uM
Label yes (1) when Dose.FC.CTG is at or above 0.04 log2 fold change; anything below gets no (0).

For orientation, consider the following solved cases.
Please indicate if the recorded Dose.FC.CTG for Cc1ccc(S(=O)(=O)NC(=O)NN2CC3CCCC3C2)cc1 (centres unmarked) [Gliclazide] meets or exceeds 0.04 log2 fold change. no (0)

Check this compound for Dose.FC.CTG at or above 0.04 log2 fold change: CCN(CC)C(=O)/C(C#N)=C/c1cc(O)c(O)c([N+](=O)[O-])c1 yes (1)

Can N#CC1(c2ccc(NC(=O)c3cccnc3NCc3ccncc3)cc2)CCCC1 be said to have Dose.FC.CTG at or above 0.04 log2 fold change? yes (1)

Decide: is the reported value of Dose.FC.CTG for CCCSc1nc(N[C@@H]2C[C@H]2c2ccc(F)c(F)c2)c2nnn([C@@H]3C[C@H](OCCO)[C@@H](O)[C@H]3O)c2n1 equal to or greater than 0.04 log2 fold change? no (0)

Please indicate if the recorded Dose.FC.CTG for CCO.N#CC(=C(/N)Sc1ccccc1N)/C(C#N)=C(\N)Sc1ccccc1N meets or exceeds 0.04 log2 fold change. no (0)

Others:
Dear colleague, could you confirm whether CS(=O)(=O)N1CCN(Cc2cc3nc(-c4cccc5[nH]ncc45)nc(N4CCOCC4)c3s2)CC1 has Dose.FC.CTG at or above 0.04 log2 fold change? no (0)

Reported Dose.FC.CTG at or above 0.04 log2 fold change? Cc1ccc([C@@H]2O[C@H](CO)[C@@H](O)[C@H](O)[C@H]2O)cc1Cc1ccc(-c2ccc(F)cc2)s1 yes (1)

I'd appreciate it if you could say whether CC(C)C[C@H](NC(=O)[C@H](Cc1ccccc1)NC(=O)c1cnccn1)B(O)O has Dose.FC.CTG at least equal to 0.04 log2 fold change. no (0)

----------
System: ENR+CD organoids (ISC to Paneth cell differentiation)
Assay: Primary screen: basal (non-stimulated) lysozyme secretion LYZ.NS, 2.5-D 384-well ENR+CD organoid differentiation
Assay type: cell-based, mouse
Conditions: primary screen, dose 10.00 uM
Rule for this label: true means Z.LYZ.NS (standard z score) is less than -1; false means Z.LYZ.NS (standard z score) is at least -1.

The examples below pair each entry with its known result.
Input CCc1c(C(=O)C(N)=O)c2c(OCC(=O)O)cccc2n1Cc1ccccc1 [Varespladib (LY315920), Varespladib, reference compound] ; condition: Z.LYZ.NS (standard z score) strictly below -1. Does it hold? false

Here's an entry: CCn1c(=O)c2c(nc(/C=C/c3ccc(OC)c(OC)c3)n2C)n(CC)c1=O [Istradefylline] . Is its Z.LYZ.NS (standard z score) below -1? false

Identify whether the compound CCc1cc(Nc2nccc(-c3c(-c4ccc(OC)c(C(=O)Nc5c(F)cccc5F)c4)nc4ccccn34)n2)c(OC)cc1N1CCC(N2CCN(S(C)(=O)=O)CC2)CC1 [GSK1904529A] records Z.LYZ.NS (standard z score) below -1. true

Say whether its Z.LYZ.NS (standard z score) is strictly beneath -1. Entry: CCc1c2c(nc3ccc(OC(=O)N4CCC(N5CCCCC5)CC4)cc13)-c1cc3c(c(=O)n1C2)COC(=O)[C@]3(O)CC [Irinotecan] true

Would you kindly verify if Z.LYZ.NS (standard z score) of CC(C)(C)c1cc(C(C)(C)C)c(NC(=O)c2c[nH]c3ccccc3c2=O)cc1O [Ivacaftor (VX-770)] is strictly less than -1? true

---
Answer whether the compound Oc1ccc2ccccc2c1SSc1c(O)ccc2ccccc12 [IPA-3] has Z.LYZ.NS (standard z score) strictly less than -1 false

I wonder whether C=C1C(=O)O[C@H]2[C@H]1CC/C(C)=C/CC[C@@]1(C)O[C@@H]21 [(−)-Parthenolide] has Z.LYZ.NS (standard z score) below -1. Can you tell? false

----------
System: ENR+CD organoids
Assay: Primary screen: ATP (CellTiter-Glo 3D, CTG) cell number/viability, 2.5-D 384-well ENR+CD organoids
Conditions: primary screen, dose 10.00 uM
measured_property: Z.CTG (standard z score)
Give your answer as a number; write no unit.

Here is how some compounds turned out for Z.CTG (standard z score).
Give Z.CTG (standard z score) for C[C@H]1COC2(CCN(c3nc(=O)c4cc(C(F)(F)F)cc([N+](=O)[O-])c4s3)CC2)O1 (racemic) [BTZ043 Racemate] tested on ENR+CD organoids. 0.782

GET Z.CTG (standard z score) where system = ENR+CD organoids and item = CC(=O)Nc1cccc2c1c(Sc1ccc(Cl)cc1)c(C)n2CC(=O)O 0.570

Param request: Z.CTG (standard z score) | system ENR+CD organoids | item N#C[C@@H]1CCCN1C(=O)CNC12CC3CC(CC(O)(C3)C1)C2 0.811

Further cases:
Fill in: Z.CTG (standard z score) on ENR+CD organoids, entry Cc1ccc(NC(=O)C2(c3ccc4c(c3)OC(F)(F)O4)CC2)nc1-c1cccc(C(=O)O)c1 0.076

Given COC(=O)CCSCc1ccc(-c2onc(C)c2NC(=O)OC(C)c2ccccc2Cl)cc1 (stereo not drawn) , report its Z.CTG (standard z score) on ENR+CD organoids. 0.052

Supply Z.CTG (standard z score) measured with ENR+CD organoids for C=C1C(=O)O[C@H]2[C@H]1CC/C(C)=C/CC[C@@]1(C)O[C@@H]21 [(−)-Parthenolide] . 0.374

Fetch value of Z.CTG (standard z score) on ENR+CD organoids for Cl.Cl.Cl.O[C@@H](COc1cccc2ncccc12)CN1CCN([C@@H]2c3ccccc3[C@@H]3[C@H](c4ccccc42)C3(F)F)CC1 [Zosuquidar (LY335979) 3HCl] . −0.461

Under ENR+CD organoids, report Z.CTG (standard z score) for COc1ccc2c(c1)c(CC(=O)N1CCOCC1)c(C)n2C(=O)c1ccc(Cl)cc1 −0.254

Please tell me the measured Z.CTG (standard z score) for CCn1c(-c2nonc2N)nc2c(C#CC(C)(C)O)ncc(OC[C@H]3CCCNC3)c21 ; system: ENR+CD organoids. −0.434

----------
Items are presented alongside their recorded Z.LYZ.NS (standard z score).
Test system: ENR+CD organoids (ISC to Paneth cell differentiation)
Test: Primary screen: basal (non-stimulated) lysozyme secretion LYZ.NS, 2.5-D 384-well ENR+CD organoid differentiation
Format: cell-based, mouse
Settings: primary screen, dose 2.00 uM
Please reply with the value in numeric form only.

Name the recorded Z.LYZ.NS (standard z score) of the item O=C(Nc1cc(C(F)(F)F)cc(C(F)(F)F)c1)c1cc(Cl)ccc1O [IMD 0354] in your answer. 0.847

Give Z.LYZ.NS (standard z score) for the following compound: CN(C)C(=O)c1ccc(S(=O)(=O)c2ccc(NC(=O)[C@@](C)(O)C(F)(F)F)c(Cl)c2)cc1 [AZD7545] −0.155

Consider the compound Clc1ccc(N/N=C(\c2ccccc2)c2ccccn2)nc1 [JIB-04] and give its recorded Z.LYZ.NS (standard z score). 0.048

Note Z.LYZ.NS (standard z score) for the compound shown: Cc1c(Cl)cccc1Nc1ccccc1C(=O)O [Tolfenamic Acid] 0.927

Quick one: give measured Z.LYZ.NS (standard z score) for COC(=O)CCSCc1ccc(-c2onc(C)c2NC(=O)OC(C)c2ccccc2Cl)cc1 (centres unmarked) [Ki16198] 0.519

Identify the reported Z.LYZ.NS (standard z score) for the following entry. C[C@@H](c1ncncc1F)[C@](O)(Cn1cncn1)c1ccc(F)cc1F [Voriconazole] 0.588

Annotate the compound N#C[C@@H]1CCCN1C(=O)CNC12CC3CC(CC(O)(C3)C1)C2 [Vildagliptin (LAF-237)] with its measured Z.LYZ.NS (standard z score). 1.478

Read off the recorded Z.LYZ.NS (standard z score) for C[C@H](NC(=O)[C@@H](O)c1cc(F)cc(F)c1)C(=O)N[C@@H]1C(=O)N(C)c2ccccc2-c2ccccc21 [LY411575] −0.598

----------
Test system: ENR+CD organoids
Test: Primary screen: ATP (CellTiter-Glo 3D, CTG) cell number/viability, 2.5-D 384-well ENR+CD organoids;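 also: compounds given at plating and again on day 3 over a 6-day differentiation from ENR+CV stem-cell-enriched precursors, ATP measured on day 6, plate median as control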
Conditions: primary screen, dose 0.08 uM, standard z score
measured_property: Z.CTG

// solved cases for Z.CTG follow
Return Z.CTG (reported value) for this molecule: O=C1NC(=O)C(c2ccccc2[N+](=O)[O-])=C1Nc1ccc(O)c(Cl)c1 0.527

Give the reported Z.CTG for this molecule. CC(=O)c1cc([N+](=O)[O-])c(Sc2ccc(F)cc2F)s1 −0.516

Fill in reported Z.CTG for this entry: O=[N+]([O-])C=Cc1ccc2c(c1)OCO2 −0.037

Name the recorded Z.CTG of the item Cc1ccc(C(=O)N(CCCN)[C@@H](c2oc3cc(Cl)ccc3c(=O)c2Cc2ccccc2)C(C)C)cc1 in your answer. −1.159

Please examine the following record next.
Supply measured Z.CTG of COc1c(C)c(C(=O)c2ccc(N)c(C(=O)[O-])c2)n2ccccc12.[Na+] [SSR128129E] in your reply. 0.210
